Tested on: NCI-H226 lung
Protocol Description: NCI tumour cell line growth inhibition, 48 h
Reported values of TGI for individual entries
Could you give me the number in µM? Just the number is fine.

Some solved cases for reference:
>>> quantitative_result("O=C(CCl)Nc1cc(O)c2c(c1)C(=O)c1cccc(O)c1C2=O")
4.93
>>> quantitative_result("COc1ccc(C[C@@H]2OC3(C=CC(=O)C=C3)O[C@H]2Cc2ccc(OC)cc2)cc1")
0.652
>>> quantitative_result("CCN(CC)CCNc1ccc2ncn3c4cc(=O)ccc4c(O)c1c23")
11.4

Shifting focus to the molecule that follows.
Query: Looking for the measured TGI of "NCCCC[C@H](N)C(=O)Nc1ccc(-c2nc3ccccc3s2)cc1Cl" , can you help?
Result: 4.62
